Measured GI50 accompanies every entry in the list below.
# System: DU-145
# Test Method Notes: NCI tumour cell line growth inhibition, 48 h
Calls of active or inactive are those of the source. No stated cut-off is given here; in the data, active = GI50 up to about 1.1 µM and inactive = higher.

O=C(NCC1Nc2ccncc2S(=O)(=O)N1)c1ccc(Br)cc1 (stereo unspecified)    77.6 µM (inactive)
O=C1C(c2c(O)[nH]c3ccc(F)cc23)=Nc2ccccc21    > 100 µM (inactive)
COc1ccc(/C(Cl)=C(\CNc2ccccn2)c2ccccc2)cc1OC    > 100 µM (inactive)

Consider the compound COc1ccc(C)cc1NC(=S)N/N=C/c1ccco1 . State its measured GI50.
> 100 µM (inactive)

Consider the compound N=c1c2sc3nc4ccccc4n3c2ncn1Cc1ccccc1 and give its recorded GI50.
> 100 µM (inactive)

Please indicate GI50 recorded for COc1cc(OCCN(C)C)c2[nH]c(C(=O)N3CC(CCl)c4c3cc(N)c3ccccc43)cc2c1 (stereo unspecified)
< 0.01 µM (active)
